target_under_test: ~100 representative kinases (Homo sapiens)
Construct: Recombinant protein kinase domains with a concentration of 2 μM
measurement_notes: DSF 100 kinase selectivity screen;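 further: compound tested at 20 µM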
Assay type: binding
study_conditions: protein MAPKAPK2; average of three replicates
// label = TRUE if dTm is not less than -0.1 K, otherwise FALSE

Take a look at these entries with their results.
> print(dat)
                                   compound                         target.under.test  group
1  Cc1ccc(C(=O)Nc2ccc(CN3CCN(C)CC3)c(C(F)(F)F)c2)cc1C#Cc1cnc2[nH]ncc2c1 [GZD-824, reference compound]  ~100 representative kinases (Homo sapiens)  FALSE
2  O=C(Nc1ccc(Cl)cc1)C1(C(=O)Nc2cccc(-c3c[nH]c4ncnc(N5CCOCC5)c34)c2)CC1 [Compound 13]  ~100 representative kinases (Homo sapiens)   TRUE
3  O=C(Nc1cc(F)cc(Br)c1)C1(C(=O)Nc2cccc(-c3c[nH]c4ncnc(N5CCOCC5)c34)c2)CC1 [Compound 27]  ~100 representative kinases (Homo sapiens)   TRUE

Reported dTm reaches at least -0.1 K for O=C(Nc1cccc(-c2c[nH]c3ncnc(N4CCOCC4)c23)c1)C1(C(=O)Nc2cc(Br)c(F)cc2F)CC1 [Compound 25] ?
TRUE

Please indicate if the recorded dTm for Cc1ccc(-n2nc(C(C)(C)C)cc2NC(=O)Nc2cccc(-c3c[nH]c4nc(Cl)nc(N5CCOCC5)c34)c2)cc1 [Compound 30] meets or exceeds -0.1 K.
FALSE

* * *

target_under_test: ~100 representative kinases (Homo sapiens)
Construct: Recombinant protein kinase domains with a concentration of 2 μM
Sequence (O14976 1-1311): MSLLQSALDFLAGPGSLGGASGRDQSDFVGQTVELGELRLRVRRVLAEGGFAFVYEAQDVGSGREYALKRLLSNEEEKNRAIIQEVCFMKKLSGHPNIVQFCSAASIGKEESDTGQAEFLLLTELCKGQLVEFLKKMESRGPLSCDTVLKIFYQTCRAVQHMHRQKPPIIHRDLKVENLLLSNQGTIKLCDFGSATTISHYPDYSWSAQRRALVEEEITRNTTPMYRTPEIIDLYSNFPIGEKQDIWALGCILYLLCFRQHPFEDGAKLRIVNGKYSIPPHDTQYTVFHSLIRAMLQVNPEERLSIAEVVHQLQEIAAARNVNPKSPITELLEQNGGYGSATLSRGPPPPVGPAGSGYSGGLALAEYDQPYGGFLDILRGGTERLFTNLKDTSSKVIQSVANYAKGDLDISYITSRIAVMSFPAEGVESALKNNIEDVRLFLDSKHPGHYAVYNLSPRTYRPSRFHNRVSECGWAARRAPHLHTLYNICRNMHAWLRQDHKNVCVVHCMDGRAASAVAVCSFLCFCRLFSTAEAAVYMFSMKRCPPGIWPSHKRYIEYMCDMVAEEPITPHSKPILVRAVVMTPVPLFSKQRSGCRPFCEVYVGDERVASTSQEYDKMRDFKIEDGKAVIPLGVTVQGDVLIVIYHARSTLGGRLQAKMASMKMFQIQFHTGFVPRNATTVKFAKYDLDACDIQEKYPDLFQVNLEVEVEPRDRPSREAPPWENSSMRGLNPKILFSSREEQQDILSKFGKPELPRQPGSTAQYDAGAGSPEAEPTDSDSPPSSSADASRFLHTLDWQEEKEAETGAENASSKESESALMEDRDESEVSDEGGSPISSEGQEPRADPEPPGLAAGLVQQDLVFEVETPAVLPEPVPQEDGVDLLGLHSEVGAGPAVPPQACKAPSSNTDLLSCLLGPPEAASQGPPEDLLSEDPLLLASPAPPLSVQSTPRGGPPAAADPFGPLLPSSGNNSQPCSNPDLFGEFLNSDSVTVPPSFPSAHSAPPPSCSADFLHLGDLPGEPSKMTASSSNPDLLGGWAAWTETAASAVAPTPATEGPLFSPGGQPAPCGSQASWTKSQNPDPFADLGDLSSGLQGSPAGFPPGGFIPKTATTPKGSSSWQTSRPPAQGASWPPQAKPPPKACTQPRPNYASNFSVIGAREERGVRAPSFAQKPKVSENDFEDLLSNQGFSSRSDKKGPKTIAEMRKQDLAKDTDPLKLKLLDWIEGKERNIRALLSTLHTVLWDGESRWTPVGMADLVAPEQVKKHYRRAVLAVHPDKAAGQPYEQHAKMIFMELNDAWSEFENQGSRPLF
measurement_notes: DSF 100 kinase selectivity screen;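 further: compound tested at 20 µM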
Format: binding
study_conditions: protein GAK; average of three replicates
Recorded dTm determines the label; the label ranges are 1 = under 0.5 K, 2 = from 0.5 K up to 1 K, 3 = 1 K and over

The examples below pair each entry with its known result.
> print(dat)
                                   compound  group
1  CC(C)(C)c1cc(NC(=O)Nc2cccc(-c3c[nH]c4ncnc(N5CCOCC5)c34)c2)n(-c2ccc3ncccc3c2)n1 [Compound 28]      3
2  O=C(Nc1ccc(Cl)cc1)C1(C(=O)Nc2cccc(-c3c[nH]c4ncnc(N5CCOCC5)c34)c2)CC1 [Compound 13]      3
3  O=C(Nc1cccc(-c2c[nH]c3ncnc(N4CCOCC4)c23)c1)C1(C(=O)Nc2ccc(F)c(Br)c2)CC1 [Compound 19]      3
4  O=C(Nc1cccc(-c2c[nH]c3ncnc(N4CCOCC4)c23)c1)c1cccn(-c2ccc(F)cc2)c1=O [Compound 4]      1
5  COc1ccc(NC(=O)C2(C(=O)Nc3cccc(-c4c[nH]c5ncnc(N6CCOCC6)c45)c3)CC2)cc1 [Compound 16]      1
6  O=C(Nc1ccccc1)C1(C(=O)Nc2cccc(-c3c[nH]c4ncnc(N5CCOCC5)c34)c2)CC1 [Compound 12]      3
7  O=C(Nc1cccc(-c2c[nH]c3ncnc(N4CCOCC4)c23)c1)C1(C(=O)Nc2ccc(F)cc2F)CC1 [Compound 23]      2
8  Cc1ccc(-n2nc(C(C)(C)C)cc2NC(=O)Nc2cccc(-c3c[nH]c4ncnc(N5CCOCC5)c34)c2)cc1 [Compound 29]      1

Consider O=C(Nc1cccc(-c2c[nH]c3ncnc(N4CCOCC4)c23)c1)C1(C(=O)Nc2cc(Br)c(F)cc2F)CC1 [Compound 25] . To which dTm class does it belong?
2

Quick check: band for Cc1ccc(-n2nc(C(C)(C)C)cc2NC(=O)Nc2cccc(-c3c[nH]c4nc(Cl)nc(N5CCOCC5)c34)c2)cc1 [Compound 30]
1

Sort into band: COc1cc(C(=O)N2CCOCC2)c(F)cc1Nc1nc(N(C)C)c2c(Cl)c[nH]c2n1 [Compound 36]
3
